Tested on: EKVX
assay.notes: NCI tumour cell line growth inhibition, 48 h
Calls of active or inactive are those of the source. Rule as the data show it: active = GI50 up to about 1.1 µM and inactive = higher.
Possible outcomes: active, inactive

INSERT INTO assay_data (compound, class_assignment) VALUES
  ('CO[C@@H]1[C@H](O)CC[C@]2(CO2)[C@H]1[C@@]1(C)O[C@@H]1CC=C(C)C', 'inactive'),
  ('COC(=O)[C@@]12OC[C@]34C([C@@H](O)C1O)[C@@]1(C)CC(=O)C(O)=C(C)C1C[C@H]3OC(=O)[C@H](OC(=O)CC(C)C(F)(F)F)[C@H]42 (stereo not given in full)', 'active'),
  ('O=C(NCCNCCNCCNC(=O)c1cc(-c2ccccc2)nc2ccccc12)c1cc(-c2ccccc2)nc2ccccc12', 'inactive'),
  ('Nc1nnnn1NC(=O)NCCCl', 'inactive'),
  ('CCCC1(CCC)c2cc(/C=N\O)ccc2-c2ccc(-c3ccc(C(C)(C)C)cc3)cc21', 'inactive'),
  ('COc1ccc(/C=C/c2ccnc3ccccc23)c(OC)c1', 'inactive'),
  ('O=C1c2ccccc2NC(c2cc(Cl)cc(Cl)c2O)N1CCc1ccccn1 (stereo not given)', 'inactive'),
  ('O=C(c1ccccc1)c1ccc2[nH]c(-c3c(Cl)c(Cl)c(Cl)c(Cl)c3C(=O)Nc3ccco3)nc2c1', 'inactive'),
  ('Cc1[nH]c2ccccc2c1/C=C/c1c(C)[nH]c2ccccc12', 'inactive'),
  ('O=C(c1ccccc1)c1ccc2cccc(O)c2n1', 'inactive'),
  ('COc1cc2c(c(OC)c1OC)-c1ccc(OC)c(=O)cc1[C@@H](NC(=O)c1ccccc1)CC2', 'inactive'),
  ('CCC(NC(C)c1ccccc1)C(=O)c1ccc(OCc2ccccc2)c(OCc2ccccc2)c1 (stereo not given)', 'inactive'),
  ('C=C(C)[C@H]1C=C[C@@H](OC(=O)c2cccnc2)[C@@]23CO[C@@](C)([C@H](OC(=O)c4cccnc4)[C@@]4(OC(C)=O)C[C@H](C)[C@H](OCCC)[C@@H]4[C@H]2OC(C)=O)[C@H]13', 'inactive'),
  ('COc1ccc(-c2cc(=O)c3c(O)c(OC)c(OC)c(OC)c3o2)cc1', 'inactive'),
  ('N#C/C=C(/NC(=O)Nc1ccccc1)N1CCCC1', 'inactive'),
  ('N#Cc1c(N)c2c(c(-c3ccccc3)c1-c1ccccc1)C(=O)N(NC(=S)Nc1ccccc1)C2=O', 'inactive'),
  ('C=CCn1c2ccccc2[n+]2cc([N+](=O)[O-])ccc12', 'inactive'),
  ('CC1S/C(=N/c2nnc(-c3ccccc3)o2)NC1=O (stereo not given)', 'inactive'),
  ('CCN(CC)Cc1c(/C=C\c2cc(OC)c(OC)c(OC)c2)ccc(OC)c1O', 'inactive'),
  ('COC1(OC)C=CC(=O)C=C1', 'inactive'),
  ('O=[N+]([O-])c1ccccc1C1N2CCCCC2[C@@H]2c3[nH]c4ccccc4c3CCN12 (stereo not given in full)', 'inactive'),
  ('Cc1cc(Cl)ccc1C1OC(=O)c2c1ccc1ccccc21 (stereo not given)', 'inactive'),
  ('CCOC(=O)C(C)(C)/C=C\C(Cl)=C(Cl)Cl', 'inactive'),
  ('CC(C)C1(Cl)CCC2C3(C)CCCC(C)(C(=O)O)C3CC(Cl)C2(Cl)C1Cl (stereo not given)', 'inactive'),
  ('CC1(C)OCC2OC(n3cnc4c(N)nc(Cl)nc43)C(OS(C)(=O)=O)C2O1 (stereo not given)', 'inactive'),
  ('CC(=O)c1c(O)ccc2c1c1c(n2C)C(=O)c2ccccc2C1=O', 'inactive'),
  ('COC(=O)CCC(=O)N1Cc2cc(C)ccc2N(C(=O)CCC(=O)OC)Cc2cc(C)ccc21', 'inactive'),
  ('Clc1cc(N/N=C(\c2ccccc2)c2ccccn2)ncn1', 'active'),
  ('O=C(/C=C(\O)C(=O)O)/C=C(\O)c1ccccc1', 'inactive'),
  ('[O-][n+]1onc2c1-c1nonc1CC2', 'inactive'),
  ('Clc1cc(OCc2nn3c(Cc4ccccc4)nnc3s2)c(Cl)cc1OCc1nn2c(Cc3ccccc3)nnc2s1', 'inactive'),
  ('CCOC(=O)CCC(NC(=O)c1ccc(Oc2nc3c(N)cc(C(F)(F)F)cc3nc2-c2ccccc2)cc1)C(=O)OCC (stereo not given)', 'inactive'),
  ('CCOC(=O)c1sc2c(C(=O)OCC)n3ccccc3c2c1N', 'inactive'),
  ('Cc1nnc2n(c1=O)CCCN2C', 'inactive'),
  ('COC(=O)c1c2c(cc3c1CC1(Cc4ccccc4C1)C3)CCC2', 'inactive'),
  ('CSCCCNC(=O)c1csc(-c2csc(CCNC(=O)CNC(=O)CNC(=O)CNC(=O)OC(C)(C)C)n2)n1', 'inactive'),
  ('CCOC(=O)CCc1c(C)c2c(O)cc(O)cc2oc1=O', 'inactive'),
  ('CC(=O)c1ccc2c(c1)oc(=O)n2CCN1CCCCC1', 'inactive'),
  ('COC(=O)[C@H]1ON2O[C@H](OC3CCCC[C@@H]3c3ccccc3)C[C@@H]3CC[C@H]1[C@@]32C (stereo not given in full)', 'inactive'),
  ('CC1(C)OC[C@H](C(=N)OCc2ccccc2)O1', 'inactive');
